system: barnyardgrass (Echinochloa crus-galli); test: Test A preemergence, barnyardgrass; type: in vivo; settings: 500 g ai/ha, 0 to 100 scale (0 no effect, 100 complete control)
Experimental endpoint: Plant response rating, Barnyardgrass
The answer should be a number; do not append a unit.

{"columns": ["Molecule", "Measured on", "Plant response rating, Barnyardgrass"],
 "data": [
  ["CC1(C)CC(S(=O)(=O)Cc2c(C(F)(F)F)nc3cnccn3c2=O)=NO1", "barnyardgrass (Echinochloa crus-galli)", 80]
]}

### Prompt # lookup: Plant response rating, Barnyardgrass of CC1(C)CC([S+]([O-])Cc2c(C(F)(F)F)nc3n(c2=O)CCCCC3)=NO1 (centres unmarked)
### Response 70

### Prompt Follow-up item: CC1(C)CC(S(=O)(=O)Cc2c(C(F)(F)Cl)nc3n(c2=O)CCCC3)=NO1
### Response 100

### Prompt Similarly, Cn1c(=O)c(CS(=O)(=O)C2=NOC(C)(C)C2)nc2ccccc21 ?
### Response 40

### Prompt What do you get for Cc1cc2nc(C(F)(F)F)c(CS(=O)(=O)C3=NOC(C)(C)C3)c(=O)n2o1 ?
### Response 90

### Prompt Also check CC1(C)CC([S+]([O-])Cc2c(C(F)(F)Cl)nc3n(c2=O)CCCS3)=NO1 (centres unmarked)
### Response 60

### Prompt Also check CC1(C)CC([S+]([O-])Cc2c(C(F)(F)C(F)(F)F)nc3n(c2=O)CCCC3)=NO1 (centres unmarked)
### Response 80

### Prompt Now consider CCn1c(=O)c(C[S+]([O-])C2=NOC(C)(C)C2)nc2cccnc21 (centres unmarked) and answer again.
### Response 0

### Prompt Param item: Cn1c(=O)c(CS(=O)(=O)C2=NOC(C)(C)C2)c(C(F)(F)F)c2ccccc21
### Response 80

### Prompt Also CC1(C)CC(S(=O)(=O)Cc2c(C(F)(F)F)nc3ccon3c2=O)=NO1 , if possible.
### Response 80

### Prompt Cc1con2c(=O)c(CS(=O)(=O)C3=NOC(C)(C)C3)c(C(F)(F)F)nc12 ?
### Response 90

### Prompt And CC1(C)CC([S+]([O-])Cc2c(C(F)(F)C(F)(F)F)nc3n(c2=O)CCS3)=NO1 (centres unmarked) ?
### Response 60
